Every entry's value here was drawn from ChEMBL document CHEMBL1158409.

- measured_target: Tyrosine-protein kinase SYK (Homo sapiens, UniProt P43405)
pIC50: −log10 of the molar value.
readout_name: pIC50

{"mol_smiles": "NCc1ccc(-c2cnc3[nH]cc(-c4cccc(NC(=O)Nc5ccc(C(F)(F)F)cc5F)c4)c3c2)cc1", "val": 7.10}

* * *

- measured_target: Insulin-like growth factor 1 receptor (Homo sapiens)
- assay_protocol: Inhibition of GST-tagged human IGF1R expressed in Sf9-baculovirus system
pIC50: −log10 of the molar value.
readout_name: pIC50

{"mol_smiles": "Nc1cccc(-c2cnc3[nH]cc(-c4cccc(NC(=O)Nc5ccc(C(F)(F)F)cc5F)c4)c3c2)c1", "readout_name": "pIC50", "val": 6.62}
{"mol_smiles": "O=C(Nc1cccc(-c2c[nH]c3ncc(-c4cccc(F)c4)cc23)c1)Nc1ccc(C(F)(F)F)cc1F", "readout_name": "pIC50", "val": 6.22}
{"mol_smiles": "CN1CCN(C(=O)c2cccc(-c3cnc4[nH]cc(-c5cccc(NC(=O)Nc6ccc(C(F)(F)F)cc6F)c5)c4c3)c2)CC1", "readout_name": "pIC50", "val": 6.47}
{"mol_smiles": "CN(C)CCNC(=O)c1cccc(-c2cnc3[nH]cc(-c4cccc(NC(=O)Nc5ccccc5Oc5ccccc5)c4)c3c2)c1", "readout_name": "pIC50", "val": 8.40}

* * *

- measured_target: UniProtKB P08069
- assay_protocol: Inhibition of IGF1-induced human IGF1R phosphorylation expressed in mouse NIH-3T3 cells treated 2 hrs prior to IGF1 challenge by DELFIA

{"mol_smiles": "CN(C)C(=O)c1cccc(-c2cnc3[nH]cc(-c4cccc(NC(=O)Nc5cccc(Oc6ccccc6)c5)c4)c3c2)c1", "IC50 [nM]": 961}
{"mol_smiles": "CN(C)S(=O)(=O)c1cccc(-c2cnc3[nH]cc(-c4cccc(NC(=O)Nc5ccccc5Oc5ccccc5)c4)c3c2)c1", "IC50 [nM]": 1120}
{"mol_smiles": "O=C(Nc1cccc(-c2c[nH]c3ncc(-c4cccc(C(=O)O)c4)cc23)c1)Nc1ccccc1Oc1ccccc1", "IC50 [nM]": 1040}
{"mol_smiles": "O=C(Nc1cccc(-c2c[nH]c3ncc(-c4ccccc4)cc23)c1)Nc1ccccc1Oc1ccccc1", "IC50 [nM]": 693}
{"mol_smiles": "O=C(Nc1cccc(-c2c[nH]c3ncc(-c4ccoc4)cc23)c1)Nc1ccccc1Oc1ccccc1", "IC50 [nM]": 1260}

* * *

- measured_target: Insulin-like growth factor 1 receptor (Homo sapiens, UniProt P08069)
- Sequence (P08069 31-736 limits assumed): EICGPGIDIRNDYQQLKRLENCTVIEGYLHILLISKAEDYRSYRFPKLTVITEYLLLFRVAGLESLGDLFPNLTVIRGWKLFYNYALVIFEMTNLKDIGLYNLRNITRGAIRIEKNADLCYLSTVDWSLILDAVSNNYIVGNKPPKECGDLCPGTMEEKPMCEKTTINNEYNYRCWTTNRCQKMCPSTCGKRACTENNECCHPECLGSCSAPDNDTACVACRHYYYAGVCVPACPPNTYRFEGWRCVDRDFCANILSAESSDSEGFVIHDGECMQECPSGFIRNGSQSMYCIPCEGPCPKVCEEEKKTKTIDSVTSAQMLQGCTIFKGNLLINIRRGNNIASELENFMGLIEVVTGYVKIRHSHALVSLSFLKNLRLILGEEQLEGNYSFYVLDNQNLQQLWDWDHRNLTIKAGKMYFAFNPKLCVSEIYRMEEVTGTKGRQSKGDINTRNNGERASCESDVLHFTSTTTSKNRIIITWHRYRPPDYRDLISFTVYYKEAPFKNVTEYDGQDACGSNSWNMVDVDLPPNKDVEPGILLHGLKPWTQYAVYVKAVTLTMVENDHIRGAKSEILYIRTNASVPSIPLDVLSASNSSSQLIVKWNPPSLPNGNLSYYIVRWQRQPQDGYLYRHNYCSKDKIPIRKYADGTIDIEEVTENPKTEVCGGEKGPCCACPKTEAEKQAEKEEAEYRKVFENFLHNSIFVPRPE
- Sequence (P08069 741-1367 limits assumed): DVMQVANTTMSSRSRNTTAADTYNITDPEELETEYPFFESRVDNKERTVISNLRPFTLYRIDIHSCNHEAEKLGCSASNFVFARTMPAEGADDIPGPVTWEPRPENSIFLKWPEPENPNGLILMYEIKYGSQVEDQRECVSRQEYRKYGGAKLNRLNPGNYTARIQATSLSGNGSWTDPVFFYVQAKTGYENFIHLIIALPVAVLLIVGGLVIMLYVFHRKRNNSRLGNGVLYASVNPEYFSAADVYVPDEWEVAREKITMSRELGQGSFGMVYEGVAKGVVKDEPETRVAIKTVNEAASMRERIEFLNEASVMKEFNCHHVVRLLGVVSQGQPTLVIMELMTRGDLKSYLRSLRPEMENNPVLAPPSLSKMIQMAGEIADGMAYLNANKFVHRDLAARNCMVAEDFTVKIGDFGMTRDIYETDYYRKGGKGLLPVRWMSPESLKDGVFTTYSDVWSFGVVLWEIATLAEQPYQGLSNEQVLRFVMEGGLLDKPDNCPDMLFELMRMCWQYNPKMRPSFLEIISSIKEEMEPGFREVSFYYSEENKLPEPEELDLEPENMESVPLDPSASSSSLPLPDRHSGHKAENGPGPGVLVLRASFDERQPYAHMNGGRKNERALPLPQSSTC
- assay_protocol: Inhibition of GST-tagged human IGF1R expressed in Sf9-baculovirus system

{"mol_smiles": "COc1ccc(-c2cnc3[nH]cc(-c4cccc(NC(=O)Nc5ccc(C(F)(F)F)cc5F)c4)c3c2)cc1OC", "IC50": "2200 nM"}
{"mol_smiles": "CN(C)C(=O)c1cccc(-c2cnc3[nH]cc(-c4cccc(NC(=O)Nc5ccccc5Oc5ccccc5)c4)c3c2)c1", "IC50": "21 nM"}
{"mol_smiles": "CN(C)C(=O)c1cccc(-c2cnc3[nH]cc(-c4cccc(NC(=O)Nc5ccccc5OCc5ccccc5)c4)c3c2)c1", "IC50": "132 nM"}
{"mol_smiles": "CN(C)C(=O)c1cccc(-c2cnc3[nH]cc(-c4cccc(NC(=O)Nc5ccc(Oc6ccccc6)cc5)c4)c3c2)c1", "IC50": "2040 nM"}
{"mol_smiles": "CN(C)CCNC(=O)c1ccc(-c2cnc3[nH]cc(-c4cccc(NC(=O)Nc5ccccc5Oc5ccccc5)c4)c3c2)cc1", "IC50": "4 nM"}
{"mol_smiles": "O=C(Nc1cccc(-c2c[nH]c3ncc(-c4ccccc4)cc23)c1)Nc1ccccc1Oc1ccccc1", "IC50": "127 nM"}
{"mol_smiles": "NCc1ccc(-c2cnc3[nH]cc(-c4cccc(NC(=O)Nc5cccc(Cl)c5)c4)c3c2)cc1", "IC50": "20 nM"}
{"mol_smiles": "O=C(Nc1cccc(-c2c[nH]c3ncc(-c4ccccc4)cc23)c1)Nc1ccc(C(F)(F)F)cc1F", "IC50": "1260 nM"}
{"mol_smiles": "O=C(Nc1cccc(Cl)c1)Nc1cccc(-c2c[nH]c3ncc(-c4ccccc4)cc23)c1", "IC50": "1020 nM"}
{"mol_smiles": "CN(C)C(=O)c1cccc(-c2cnc3[nH]cc(-c4cccc(NC(=O)Nc5ccccc5Nc5ccccc5)c4)c3c2)c1", "IC50": "39 nM"}
{"mol_smiles": "O=C(O)CCc1ccc(-c2cnc3[nH]cc(-c4cccc(NC(=O)Nc5ccccc5Oc5ccccc5)c4)c3c2)cc1", "IC50": "210 nM"}
